Recorded inhibition by entry
- TEST SYSTEM: Serotonin 3 (5-HT3) receptor (Rattus norvegicus) (UniProt P35563+Q9JJ16)
- ASSAY OVERVIEW: Antagonist activity ([…]) for the Bezold Jarisch reflex evoked by 30 ug/Kg of 5-HT in ethylurethane anesthetized rats (i.v.)
- Format: functional
Dear colleague, please return just the value in %, with no unit written.

Solved cases below.
COMPOUND | inhibition / %
Cc1[nH]cnc1CN1CCN(c2cccc(Br)c2)C1=O | 89
O=C1N(c2cccc([N+](=O)[O-])c2)CCN1C1CN2CCC1CC2 (stereo unspecified) | 5

Ask | Please look at this compound and report its inhibition: N#Cc1cccc(N2CCN(C3CN4CCC3CC4)C2=O)c1 (stereo unspecified)
Reply | 43

Ask | Please look at this compound and report its inhibition: O=C1N(c2cccc(Br)c2)CCN1C1CN2CCC1CC2 (stereo unspecified)
Reply | 77.7

Ask | Please look at this compound and report its inhibition: "CSc1cccc(N2CCN(Cc3nc[nH]c3C)C2=O)c1"
Reply | 88

Ask | Please look at this compound and report its inhibition: "Cc1[nH]cnc1CN1CCN(c2cccc(C#N)c2)C1=O"
Reply | 88

----------
- TEST SYSTEM: Serotonin 3 (5-HT3) receptor (Rattus norvegicus, UniProt P35563+Q9JJ16)
- Sequence (P35563 whole entry): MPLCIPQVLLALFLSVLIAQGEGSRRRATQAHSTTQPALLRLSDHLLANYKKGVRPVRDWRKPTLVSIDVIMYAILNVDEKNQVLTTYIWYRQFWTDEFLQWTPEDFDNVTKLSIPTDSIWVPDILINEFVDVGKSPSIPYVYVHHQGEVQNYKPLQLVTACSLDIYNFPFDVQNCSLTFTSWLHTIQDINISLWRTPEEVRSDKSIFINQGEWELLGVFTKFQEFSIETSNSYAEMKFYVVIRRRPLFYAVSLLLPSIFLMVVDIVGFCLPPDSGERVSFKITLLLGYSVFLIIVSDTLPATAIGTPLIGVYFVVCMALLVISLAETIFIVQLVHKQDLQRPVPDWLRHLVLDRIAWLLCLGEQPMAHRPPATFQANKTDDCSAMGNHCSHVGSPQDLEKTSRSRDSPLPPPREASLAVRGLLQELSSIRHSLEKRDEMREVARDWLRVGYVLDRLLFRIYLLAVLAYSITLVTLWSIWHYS
- Sequence (Q9JJ16 whole entry): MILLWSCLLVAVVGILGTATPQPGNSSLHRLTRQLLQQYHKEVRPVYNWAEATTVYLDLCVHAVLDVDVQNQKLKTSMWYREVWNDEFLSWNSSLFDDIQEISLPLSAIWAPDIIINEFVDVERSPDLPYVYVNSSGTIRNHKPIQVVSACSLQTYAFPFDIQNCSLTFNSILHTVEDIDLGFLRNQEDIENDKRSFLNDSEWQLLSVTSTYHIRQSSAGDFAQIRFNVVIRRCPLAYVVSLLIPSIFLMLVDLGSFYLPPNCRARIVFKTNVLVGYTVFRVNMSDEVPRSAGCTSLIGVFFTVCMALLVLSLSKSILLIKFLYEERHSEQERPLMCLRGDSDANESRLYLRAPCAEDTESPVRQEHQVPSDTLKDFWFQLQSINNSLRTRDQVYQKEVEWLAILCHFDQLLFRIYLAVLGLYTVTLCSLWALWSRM
- ASSAY OVERVIEW: In vitro affinity for 5-hydroxytryptamine 3 (5-HT3) receptor by displacement of [3H]BRL-43694 from rat entorhinal cortex
Recorded Ki by entry
Dear colleague, please return just the value in nM, with no unit written.

COMPOUND | Ki [nM]
Cc1c(CN2CCN(c3ccccc3)C2=O)ncn1C | 8.5
COc1ccc(Cl)cc1N1CCN(C2CN3CCC2CC3)C1=O (stereo not given) | 40
O=C1N(c2cc(Cl)cc(Cl)c2)CCN1C1CN2CCC1CC2 (stereo not given) | 1
CN1C2CCC1CC(N1CCN(c3cccc(Cl)c3)C1=O)C2 (stereo in doubt; 33) | 25
Cc1[nH]cnc1CN1CCN(c2ccccc2Cl)C1=O | 290

Ask | Please look at this compound and report its Ki: COc1cccc(N2CCN(C3CN4CCC3CC4)C2=O)c1 (stereo not given)
Reply | 6

Ask | Please look at this compound and report its Ki: O=C1N(c2ccc(Cl)cc2)CCN1C1CN2CCC1CC2 (stereo not given)
Reply | 210

Ask | Please look at this compound and report its Ki: CSc1cccc(N2CCN(C3CN4CCC3CC4)C2=O)c1 (stereo not given)
Reply | 6

Ask | Please look at this compound and report its Ki: "Cc1[nH]cnc1CN1CCN(c2cccc(C#N)c2)C1=O"
Reply | 2.7

Ask | Please look at this compound and report its Ki: N#Cc1cccc(N2CCN(C3CN4CCC3CC4)C2=O)c1 (stereo not given)
Reply | 30

----------
- TEST SYSTEM: Serotonin 3 (5-HT3) receptor (Rattus norvegicus) (UniProt P35563+Q9JJ16)
- ASSAY OVERVIEW: Inhibition of the Bezold Jarisch reflex evoked by 30 ug/Kg of 5-HT.
- Format: functional
Recorded ID50 by entry
Dear colleague, please return just the value in mg/kg, with no unit written.

COMPOUND | ID50 [mg/kg]
CN1C2CCC1CC(NC(=O)N1CC(C)(C)c3ccccc31)C2 (configuration not stated) | 0.00089
Cc1cccc(N2CCN(Cc3nc[nH]c3C)C2=O)c1 | 0.0031
Cc1[nH]cnc1CN1CCN(c2cc(Cl)cc(Cl)c2)C1=O | 0.0022
CSc1cccc(N2CCN(Cc3nc[nH]c3C)C2=O)c1 | 0.0286

Ask | Please look at this compound and report its ID50: Cc1nccn1CC1CCc2c(c3ccccc3n2C)C1=O (configuration not stated)
Reply | 0.00225

Ask | Please look at this compound and report its ID50: "CN1[C@@H]2CC[C@H]1C[C@@H](OC(=O)c1c[nH]c3ccccc13)C2"
Reply | 0.001

Ask | Please look at this compound and report its ID50: "Cc1[nH]cnc1CN1CCN(c2cccc(C#N)c2)C1=O"
Reply | 0.0322

Ask | Please look at this compound and report its ID50: "Cc1[nH]cnc1CN1CCN(c2cccc(F)c2)C1=O"
Reply | 0.0176

Ask | Please look at this compound and report its ID50: O=C1N(c2ccccc2)CCN1C1CN2CCC1CC2 (configuration not stated)
Reply | 0.0671

----------
- TEST SYSTEM: Serotonin 3 (5-HT3) receptor (Rattus norvegicus, UniProt P35563+Q9JJ16)
- ASSAY OVERVIEW: In vitro affinity for 5-hydroxytryptamine 3 (5-HT3) receptor by displacement of [3H]BRL-43694 from rat entorhinal cortex
EXPERIMENTAL ENDPOINT: Ki (nM)
Dear colleague, please return just the value in nM, with no unit written.

Solved cases below.
MOLECULE | READOUT UNITS | Ki
CN1C2CCCC1CC(N1CCN(c3cccc(Cl)c3)C1=O)C2 (stereo in doubt; 37) | nM | 250
COc1ccc(Cl)cc1N1CCN(C2CC3CCC(C2)N3C)C1=O (stereo not given) | nM | 400
O=C1N(c2cccc(Br)c2)CCN1C1CN2CCC1CC2 (stereo not given) | nM | 3
Cc1cc(C)cc(N2CCN(Cc3nc[nH]c3C)C2=O)c1 | nM | 0.42
O=C1N(c2cccc(Cl)c2)CCN1C1CN2CCC1CC2 (stereo not given) | nM | 2
Cc1[nH]c[n+](C)c1CN1CCN(c2ccccc2)C1=O | nM | 55

Ask | Give Ki for O=C1N(c2ccccc2)CCN1C1CN2CCC1CC2 (stereo not given) tested on Serotonin 3 (5-HT3) receptor (Rattus norvegicus, UniProt P35563+Q9JJ16).
Reply | 8

Ask | Give Ki for O=C1N(c2cccc([N+](=O)[O-])c2)CCN1C1CN2CCC1CC2 (stereo not given) tested on Serotonin 3 (5-HT3) receptor (Rattus norvegicus, UniProt P35563+Q9JJ16).
Reply | 10

Ask | Give Ki for "Cc1[nH]cnc1CN1CCN(c2cccc(Cl)c2)C1=O" tested on Serotonin 3 (5-HT3) receptor (Rattus norvegicus, UniProt P35563+Q9JJ16).
Reply | 0.5

Ask | Give Ki for "Cc1[nH]cnc1CN1CCN(c2cccc(C(F)(F)F)c2)C1=O" tested on Serotonin 3 (5-HT3) receptor (Rattus norvegicus, UniProt P35563+Q9JJ16).
Reply | 9.7

Ask | Give Ki for O=C1N(c2cccc(C(F)(F)F)c2)CCN1C1CN2CCC1CC2 (stereo not given) tested on Serotonin 3 (5-HT3) receptor (Rattus norvegicus, UniProt P35563+Q9JJ16).
Reply | 98

Ask | Give Ki for "Cc1[nH]cnc1CN1CCN(c2cccc(F)c2)C1=O" tested on Serotonin 3 (5-HT3) receptor (Rattus norvegicus, UniProt P35563+Q9JJ16).
Reply | 3.7

Ask | Give Ki for "Cc1cccc(N2CCN(Cc3nc[nH]c3C)C2=O)c1" tested on Serotonin 3 (5-HT3) receptor (Rattus norvegicus, UniProt P35563+Q9JJ16).
Reply | 0.93

Ask | Give Ki for "Cc1[nH]cnc1CN1CCN(c2cccc(Br)c2)C1=O" tested on Serotonin 3 (5-HT3) receptor (Rattus norvegicus, UniProt P35563+Q9JJ16).
Reply | 0.62

Ask | Give Ki for "Cc1nc[nH]c1CN1CCN(c2cccc([N+](=O)[O-])c2)C1=O" tested on Serotonin 3 (5-HT3) receptor (Rattus norvegicus, UniProt P35563+Q9JJ16).
Reply | 6.6

Ask | Give Ki for CN1C2CCCC1CC(N1CCN(c3ccccc3)C1=O)C2 (stereo not given) tested on Serotonin 3 (5-HT3) receptor (Rattus norvegicus, UniProt P35563+Q9JJ16).
Reply | 190

----------
- TEST SYSTEM: Serotonin 3 (5-HT3) receptor (Rattus norvegicus) (UniProt P35563+Q9JJ16)
- ASSAY OVERVIEW: Inhibition of the Bezold Jarisch reflex evoked by 30 ug/Kg of 5-HT.
- Format: functional
EXPERIMENTAL ENDPOINT: ID50 (mg/kg)
Dear colleague, please return just the value in mg/kg, with no unit written.

Solved cases below.
MOLECULE | ID50, mg/kg
Cc1[nH]cnc1CN1CCN(c2cccc([N+](=O)[O-])c2)C1=O | 0.054
O=C1N(c2cc(Cl)cc(Cl)c2)CCN1C1CN2CCC1CC2 (stereo not drawn) | 0.0206

Note: attention shifts to another entry.
Ask | Please look at this molecule and report its ID50: "Cc1[nH]cnc1CN1CCN(c2cccc(Cl)c2)C1=O"
Reply | 0.00526

----------
Recorded pKi by entry
- TEST SYSTEM: Serotonin 3 (5-HT3) receptor (Rattus norvegicus, UniProt P35563+Q9JJ16)
- ASSAY OVERVIEW: In vitro affinity for 5-hydroxytryptamine 3 (5-HT3) receptor by displacement of [3H]BRL-43694 from rat entorhinal cortex
Recall that pKi is obtained by taking minus log10 of the concentration measured in molar.

Solved cases below.
MOLECULE | pKi
O=C1N(Cc2c[nH]cn2)CCN1c1ccccc1 | 8.40
CC[n+]1c[nH]c(C)c1CN1CCN(c2ccccc2)C1=O | 7.17
CSc1cccc(N2CCN(Cc3nc[nH]c3C)C2=O)c1 | 8.80
Cc1[nH]cnc1CN1CCN(c2ccc(Cl)cc2)C1=O | 7.72
Cc1[nH]cnc1CN1CCN(c2cc(Cl)cc(Cl)c2)C1=O | 10.42

Ask | Give pKi for Cc1cccc(N2CCN(C3CN4CCC3CC4)C2=O)c1 (centres undefined) tested on Serotonin 3 (5-HT3) receptor (Rattus norvegicus, UniProt P35563+Q9JJ16).
Reply | 8.40

Ask | Give pKi for "CCn1cnc(CN2CCN(c3ccccc3)C2=O)c1C" tested on Serotonin 3 (5-HT3) receptor (Rattus norvegicus, UniProt P35563+Q9JJ16).
Reply | 7.07

Ask | Give pKi for CN1C2CCC1CC(NC(=O)N1CC(C)(C)c3ccccc31)C2 (centres undefined) tested on Serotonin 3 (5-HT3) receptor (Rattus norvegicus, UniProt P35563+Q9JJ16).
Reply | 9.59

Ask | Give pKi for "COc1cccc(N2CCN(Cc3nc[nH]c3C)C2=O)c1" tested on Serotonin 3 (5-HT3) receptor (Rattus norvegicus, UniProt P35563+Q9JJ16).
Reply | 8.44

Ask | Give pKi for CN1C2CCCC1CC(N1CCN(c3cccc(Cl)c3)C1=O)C2 (stereo in doubt; 38) tested on Serotonin 3 (5-HT3) receptor (Rattus norvegicus, UniProt P35563+Q9JJ16).
Reply | 6.44

Ask | Give pKi for "Cc1[nH]cnc1CN1CCN(c2ccccc2)C1=O" tested on Serotonin 3 (5-HT3) receptor (Rattus norvegicus, UniProt P35563+Q9JJ16).
Reply | 8.47

Ask | Give pKi for CN1C2CCC1CC(N1CCN(c3ccccc3)C1=O)C2 (centres undefined) tested on Serotonin 3 (5-HT3) receptor (Rattus norvegicus, UniProt P35563+Q9JJ16).
Reply | 7.92
